test.name: Stability and biodistribution of prodrugs in vivo (HPLC of plasma and tissues)
Parameters: species or system mice (CD-1 nude; BALB/C where indicated)
test.context: SPLEEN, 30 min, 50 mg/kg i.p. or i.v., CD-1 nude mice
For each entry below, report its concentration of prodrug in spleen value.
Express your answer in nmol/g, writing the number without its unit.

If you can, please state the reported concentration of prodrug in spleen value of Cc1nc2ccc3ccc(CNc4ccc(C(=O)N[C@@H](CCC(=O)O)C(=O)N[C@@H](Cc5ccccc5C(=O)O)C(=O)O)c(F)c4)cc3c2c(=O)[nH]1 [Prodrug 4] . 30.9

If you can, please state the reported concentration of prodrug in spleen value of CN(Cc1cnc2nc(N)nc(N)c2n1)c1ccc(C(=O)N[C@@H](CCC(=O)O)C(=O)N[C@@H](CC(=O)O)C(=O)O)cc1 [Prodrug 6] . 3.4

If you can, please state the reported concentration of prodrug in spleen value of CN(Cc1cnc2nc(N)nc(N)c2n1)c1ccc(C(=O)N[C@@H](CCC(=O)O)C(=O)N[C@@H](Cc2ccccc2C(=O)O)C(=O)O)cc1 [Prodrug 7] . 12.4

If you can, please state the reported concentration of prodrug in spleen value of Cc1nc2ccc3ccc(CNc4ccc(C(=O)N[C@@H](CCC(=O)O)C(=O)N[C@@H](Cc5ccccc5I)C(=O)O)c(F)c4)cc3c2c(=O)[nH]1 [Prodrug 5] . 34.3

If you can, please state the reported concentration of prodrug in spleen value of Nc1nc(N)c(CCCNc2ccc(C(=O)N[C@@H](CCC(=O)O)C(=O)N[C@@H](Cc3cccc(C4CCCC4)c3)C(=O)O)cc2)c(=O)[nH]1 [Prodrug 14] . 2.4

If you can, please state the reported concentration of prodrug in spleen value of CN(Cc1cnc2nc(N)nc(N)c2n1)c1ccc(C(=O)N[C@@H](CCC(=O)O)C(=O)N[C@@H](Cc2cccc(C3CCC3)c2)C(=O)O)cc1 [Prodrug 11] . 2.7

If you can, please state the reported concentration of prodrug in spleen value of CN(Cc1cnc2nc(N)nc(N)c2n1)c1ccc(C(=O)N[C@@H](CCC(=O)O)C(=O)N[C@@H](Cc2ccccc2C2CCCC2)C(=O)O)cc1 [Prodrug 8] . 1.4

If you can, please state the reported concentration of prodrug in spleen value of CN(Cc1cnc2nc(N)nc(N)c2n1)c1ccc(C(=O)N[C@@H](CCC(=O)O)C(=O)N[C@@H](Cc2cccc(C3CCCC3)c2)C(=O)O)cc1 [Prodrug 9] . 8.4

If you can, please state the reported concentration of prodrug in spleen value of Cc1nc2ccc3ccc(CNc4ccc(C(=O)N[C@@H](CCC(=O)O)C(=O)N[C@@H](CCC(=O)O)C(=O)O)c(F)c4)cc3c2c(=O)[nH]1 [Prodrug 1] . 23.4

If you can, please state the reported concentration of prodrug in spleen value of CN(Cc1cnc2nc(N)nc(N)c2n1)c1ccc(C(=O)N[C@@H](CCC(=O)O)C(=O)N[C@@H](Cc2ccc(O)c(C3CCCC3)c2)C(=O)O)cc1 [Prodrug 13] . 0.6

If you can, please state the reported concentration of prodrug in spleen value of CN(Cc1cnc2nc(N)nc(N)c2n1)c1ccc(C(=O)N[C@@H](CCC(=O)O)C(=O)N[C@@H](Cc2ccccc2)C(=O)O)cc1 [Prodrug 10, reference compound] . 19.9

Entry source: patent US6319702A
